Test system: K98450-129-R-PDC multicell spheroids, viability;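 further: spheroids exposed to agents for seven days before read-out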
run-description: Anticancer human tumor K98450-129-R-PDC patient-derived colon adenocarcinoma cell line growth inhibition [PI3K]
measurement-conditions: second compound 3.16 µM; first compound 1 µM; hits give low values
measured-property: viability, T/C (%)

compound	measured-property	units	observed
Cn1ncc(Cl)c1-c1cc(C(=O)NC(CN)Cc2cccc(F)c2)sc1Cl (stereo not drawn) + Cc1nc(NC(=O)N2CCCC2C(N)=O)sc1-c1ccnc(C(C)(C)C(F)(F)F)c1	viability, T/C	%	80.4
CC1(C)CCC(Nc2ncc(C(F)(F)F)c(-c3c[nH]c4c(P(C)(C)=O)c(C#N)ccc34)n2)CN1 (stereo not drawn) + Cc1nc(NC(=O)N2CCCC2C(N)=O)sc1-c1ccnc(C(C)(C)C(F)(F)F)c1	viability, T/C	%	67.8
CC1(C)CCC(Nc2ncc(C(F)(F)F)c(-c3c[nH]c4c(P(C)(C)=O)c(C#N)ccc34)n2)CN1 (stereo not drawn) + CC(Nc1ncnc2nc[nH]c12)c1cc2cccc(Cl)c2c(=O)n1-c1ccccc1	viability, T/C	%	70.9
